target: human GR (Homo sapiens, UniProt P04150); test: Transrepression Assay (GITAR), TNFα-β-lactamase reporter gene in U937 cells; type: cell-based; design: U937 cells contain an endogenous glucocorticoid receptor (GR); endogenous in cells; host or cells: U937 cells stably transfected with the TNF-α promoter/β-lactamase reporter only; conditions: U-937; 100 nM dexamethasone = 100% activity; read-out: maximal activity in the transrepression assay
Please respond with reported Emax for every item in the list.

Example results:
C[C@]12Cc3cnn(-c4ccc(F)cc4)c3C=C1CC[C@@]2(O)CCc1cccc(F)c1C(=O)N1CCC1
5 to 100%
C[C@]12Cc3cnn(-c4ccc(F)cc4)c3C=C1CC[C@@]2(O)CCc1ccccc1C(=O)N1CCCCC1
5 to 100%
C[C@]12Cc3cnn(-c4ccc(F)cc4)c3C=C1CC[C@@]2(O)CCc1cc(F)ccc1NS(=O)(=O)CC(F)(F)F
5 to 100%
COC(=O)C(C)(C)NC(=O)c1c(F)cccc1CC[C@]1(O)CCC2=Cc3c(cnn3-c3ccc(F)cc3)C[C@@]21C
5 to 100%
CN(C)S(=O)(=O)NCc1c(F)cccc1CC[C@]1(O)CCC2=Cc3c(cnn3-c3ccc(F)cc3)C[C@@]21C
5 to 100%

State the recorded Emax for every item in the following list.
1. C[C@]12Cc3cnn(-c4ccc(F)c(F)c4)c3C=C1CC[C@@]2(O)CCc1cccc(Cl)c1C(N)=O
2. C[C@]12Cc3cnn(-c4ccccc4)c3C=C1CC[C@@]2(O)CCc1cccc(F)c1C(N)=O

*A*
1. 5 to 100%
2. 5 to 100%

* * *

Target: UniProt P04150
Sequence (P04150 1-777): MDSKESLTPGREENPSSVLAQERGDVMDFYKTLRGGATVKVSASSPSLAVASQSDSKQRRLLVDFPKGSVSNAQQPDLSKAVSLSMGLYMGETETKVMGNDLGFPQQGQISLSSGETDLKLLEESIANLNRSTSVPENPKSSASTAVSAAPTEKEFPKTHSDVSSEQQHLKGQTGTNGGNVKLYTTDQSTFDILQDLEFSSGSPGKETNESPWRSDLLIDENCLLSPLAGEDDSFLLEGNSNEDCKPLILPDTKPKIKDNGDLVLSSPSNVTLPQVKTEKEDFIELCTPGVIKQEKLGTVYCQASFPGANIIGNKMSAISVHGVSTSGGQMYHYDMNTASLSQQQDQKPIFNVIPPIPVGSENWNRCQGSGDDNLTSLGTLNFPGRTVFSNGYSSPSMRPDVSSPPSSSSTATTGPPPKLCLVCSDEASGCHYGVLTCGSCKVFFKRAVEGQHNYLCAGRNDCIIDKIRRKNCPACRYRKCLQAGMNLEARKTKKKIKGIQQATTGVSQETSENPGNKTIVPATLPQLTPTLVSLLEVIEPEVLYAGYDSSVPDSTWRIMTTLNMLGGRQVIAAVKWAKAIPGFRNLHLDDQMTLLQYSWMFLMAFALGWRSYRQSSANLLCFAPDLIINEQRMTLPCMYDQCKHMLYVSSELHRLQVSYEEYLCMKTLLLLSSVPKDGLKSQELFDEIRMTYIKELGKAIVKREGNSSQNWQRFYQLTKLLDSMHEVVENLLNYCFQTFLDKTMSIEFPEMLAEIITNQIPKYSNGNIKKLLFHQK
Assay: Transrepression Assay (GITAR), TNFα-β-lactamase reporter gene in U937 cells
Assay type: cell-based
Parameters: U937 cells contain an endogenous glucocorticoid receptor (GR); endogenous in cells; host or cells: U937 cells stably transfected with the TNF-α promoter/β-lactamase reporter only
Settings: Table 2; separation of GITAR Emax over GRAMMER Emax
From the text: Transrepression Assay (GITAR) This assay assesses the ability of test compounds to control transcription from the TNFα-β-lactamase reporter gene in U937 cells, a human myelomonocytic leukemia cell line that naturally expresses the human GR. The assay measures compound dependent-repression of the TNFa promoter linked to a reporter gene. The human U937 cells that had been stably transfected with the TNF-α promoter driving β-lactamase are used for this assay. […]
Please respond with reported GITAR > GRAMM % SEP for every item in the list.
Answers are plain numbers, in %.

C[C@]12Cc3cnn(-c4ccc(F)cc4)c3C=C1CC[C@@]2(O)CCc1ccccc1Cl [Example 40 WO 2004/075840 A2, reference compound]
−7
C[C@]12Cc3cnn(-c4ccc(F)cc4)c3C=C1CC[C@@]2(O)CCc1ccc(F)cc1 [Example 46 WO 2004/075840 A2, reference compound]
44
C[C@]12Cc3cnn(-c4ccc(F)cc4)c3C=C1CC[C@@]2(O)CCc1ccccc1 [Example 2 WO 2004/075840 A2, reference compound]
5

Now turn to the next compound.
*Q* Which GITAR > GRAMM % SEP value is on record for C[C@]12Cc3cnn(-c4ccc(F)cc4)c3C=C1CC[C@@]2(O)CCc1ccccc1F [Example 70 WO 2004/075840 A2, reference compound] ?
*A* −62

* * *

Biological target: human GR (Homo sapiens)
Sequence (P04150 1-777): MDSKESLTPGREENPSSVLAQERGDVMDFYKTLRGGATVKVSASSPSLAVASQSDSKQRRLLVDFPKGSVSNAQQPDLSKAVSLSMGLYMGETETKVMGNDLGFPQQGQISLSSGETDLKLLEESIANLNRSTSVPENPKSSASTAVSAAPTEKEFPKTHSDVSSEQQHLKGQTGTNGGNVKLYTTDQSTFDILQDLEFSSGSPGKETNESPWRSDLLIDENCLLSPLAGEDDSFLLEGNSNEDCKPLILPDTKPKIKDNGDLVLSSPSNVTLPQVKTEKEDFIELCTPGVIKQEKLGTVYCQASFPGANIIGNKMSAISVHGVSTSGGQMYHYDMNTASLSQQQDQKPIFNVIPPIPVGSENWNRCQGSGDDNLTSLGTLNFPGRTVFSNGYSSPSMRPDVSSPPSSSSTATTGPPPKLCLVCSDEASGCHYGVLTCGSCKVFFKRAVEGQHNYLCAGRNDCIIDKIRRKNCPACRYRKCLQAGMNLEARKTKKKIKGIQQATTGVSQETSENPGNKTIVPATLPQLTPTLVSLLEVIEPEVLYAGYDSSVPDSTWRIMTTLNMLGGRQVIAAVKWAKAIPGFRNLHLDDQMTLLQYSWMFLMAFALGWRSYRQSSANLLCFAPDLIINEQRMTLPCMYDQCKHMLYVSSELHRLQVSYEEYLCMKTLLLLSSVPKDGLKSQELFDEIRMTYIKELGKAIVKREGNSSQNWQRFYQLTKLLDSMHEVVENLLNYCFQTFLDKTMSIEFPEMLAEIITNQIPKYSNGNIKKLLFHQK
Test: Transrepression Assay (GITAR), TNFα-β-lactamase reporter gene in U937 cells
Assay type: cell-based
Set-up: U937 cells contain an endogenous glucocorticoid receptor (GR); endogenous in cells; host or cells: U937 cells stably transfected with the TNF-α promoter/β-lactamase reporter only
Conditions: Table 1; U937 cells; IP = inflection point; read-out: Transrepression U937 Cells GITAR IP
Please respond with reported pEC50 for every item in the list.
Give bare numbers, as −log10 of the molar value.

Example results:
CC(C)S(=O)(=O)NCc1c(F)cccc1CC[C@]1(O)CCC2=Cc3c(cnn3-c3ccc(F)cc3)C[C@@]21C
7.03
CN(C)S(=O)(=O)Nc1c(F)cccc1CC[C@]1(O)CCC2=Cc3c(cnn3-c3ccc(F)cc3)C[C@@]21C
6.68
C=CCNC(=O)c1c(F)cccc1CC[C@]1(O)CCC2=Cc3c(cnn3-c3ccc(F)cc3)C[C@@]21C
7.52

State the recorded pEC50 for every item in the following list.
1. C[C@]12Cc3cnn(-c4ccc(F)cc4)c3C=C1CC[C@@]2(O)CCc1ccccc1S(=O)(=O)C1CC1
2. C[C@]12Cc3cnn(-c4ccc(F)cc4)c3C=C1CC[C@@]2(O)CCc1ccccc1C(=O)N1CCC1
3. C[C@]12Cc3cnn(-c4ccc(F)cc4)c3C=C1CC[C@@]2(O)CCc1cccc(F)c1CO

*A*
1: 6.67; 2: 6.61; 3: 7.34

State the recorded pEC50 for every item in the following list.
1. C[C@H](CNC(=O)c1ccccc1CC[C@]1(O)CCC2=Cc3c(cnn3-c3ccc(F)cc3)C[C@@]21C)C(F)(F)F
2. C[C@]12Cc3cnn(-c4ccc(F)cc4)c3C=C1CC[C@@]2(O)CCc1ccccc1CC(N)=O
3. CC(CNC(=O)c1c(F)cccc1CC[C@]1(O)CCC2=Cc3c(cnn3-c3ccc(F)cc3)C[C@@]21C)C(F)(F)F (stereo partly drawn)
4. C[C@]12Cc3cnn(-c4ccc(F)cc4)c3C=C1CC[C@@]2(O)CCc1ccccc1S(C)(=O)=O
5. CC(=O)Cc1ccccc1CC[C@]1(O)CCC2=Cc3c(cnn3-c3ccc(F)cc3)C[C@@]21C
6. CCS(=O)(=O)NCc1c(F)cccc1CC[C@]1(O)CCC2=Cc3c(cnn3-c3ccc(F)cc3)C[C@@]21C

*A*
6.66
6.66
6.82
6.73
6.71
7.02

State the recorded pEC50 for every item in the following list.
1. CC(O)(C(N)=O)c1ccccc1CC[C@]1(O)CCC2=Cc3c(cnn3-c3ccc(F)cc3)C[C@@]21C (single isomer, unassigned)
2. CC1(NC(=O)c2ccccc2CC[C@]2(O)CCC3=Cc4c(cnn4-c4ccccc4)C[C@@]32C)CC1
3. C[C@]12Cc3cnn(-c4ccc(F)cc4)c3C=C1CC[C@@]2(O)CCc1ccc(Cl)cc1C(N)=O

*A*
[6.68, 6.68, 6.65]
